Taken from ChEMBL document CHEMBL1153754.

biological target: Inhibitor of nuclear factor kappa-B kinase subunit beta (Homo sapiens, UniProt O14920); experiment: Inhibition of IKK-beta
Sequence (O14920 whole entry): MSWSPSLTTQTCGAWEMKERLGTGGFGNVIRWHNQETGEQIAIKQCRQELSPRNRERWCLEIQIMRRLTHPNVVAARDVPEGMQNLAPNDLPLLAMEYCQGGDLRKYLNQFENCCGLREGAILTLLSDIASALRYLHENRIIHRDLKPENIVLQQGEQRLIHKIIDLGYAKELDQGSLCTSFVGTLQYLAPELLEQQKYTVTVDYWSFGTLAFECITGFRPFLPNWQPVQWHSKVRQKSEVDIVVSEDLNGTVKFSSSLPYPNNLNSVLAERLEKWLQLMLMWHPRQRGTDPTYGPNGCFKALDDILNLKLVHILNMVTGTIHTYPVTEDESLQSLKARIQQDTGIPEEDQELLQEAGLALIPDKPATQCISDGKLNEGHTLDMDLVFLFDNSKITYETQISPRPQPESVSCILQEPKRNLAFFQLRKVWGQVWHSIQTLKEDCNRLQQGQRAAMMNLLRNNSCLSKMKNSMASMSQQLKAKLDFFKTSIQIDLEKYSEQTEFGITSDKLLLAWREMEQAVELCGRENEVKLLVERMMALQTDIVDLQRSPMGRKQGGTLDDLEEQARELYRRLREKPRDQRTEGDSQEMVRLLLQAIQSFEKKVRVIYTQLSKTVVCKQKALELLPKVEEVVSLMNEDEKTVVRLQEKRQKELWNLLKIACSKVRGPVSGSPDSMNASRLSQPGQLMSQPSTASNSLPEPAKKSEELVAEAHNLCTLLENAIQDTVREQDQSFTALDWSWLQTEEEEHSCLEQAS
Observation Type: IC50

Input `COc1cc2c(cc1Cl)C(c1cccc(Cl)c1)=NCC2` , output reported IC50.
> 10 µM

Input `COc1cc2c(cc1Cl)C(c1ccc(Cl)c(Cl)c1)=NCC2` , output reported IC50.
> 10 µM

----------
biological target: Mitogen-activated protein kinase 9 (Homo sapiens); experiment: Inhibition of N-terminal histidine-tagged human full length JNK2-alpha-2 by radiometric filter binding assay
Sequence (P45984 whole entry): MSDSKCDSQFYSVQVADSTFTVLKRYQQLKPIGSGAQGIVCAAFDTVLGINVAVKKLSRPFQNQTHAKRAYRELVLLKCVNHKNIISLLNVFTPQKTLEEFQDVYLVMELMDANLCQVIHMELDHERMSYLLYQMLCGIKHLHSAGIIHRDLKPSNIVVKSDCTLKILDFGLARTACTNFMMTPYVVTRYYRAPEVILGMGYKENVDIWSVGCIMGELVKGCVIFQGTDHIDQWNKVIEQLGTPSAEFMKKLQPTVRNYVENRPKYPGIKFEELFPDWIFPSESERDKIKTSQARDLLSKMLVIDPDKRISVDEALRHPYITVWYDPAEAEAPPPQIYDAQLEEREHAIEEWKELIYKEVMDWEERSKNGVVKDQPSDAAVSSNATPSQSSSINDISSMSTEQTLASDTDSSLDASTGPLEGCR
Observation Type: IC50 (nM)

A = COc1cc2c(cc1Cl)C(c1ccc(Cl)c(Cl)c1)=NCC2
B = COc1cc2c(cc1Cl)C(c1cccc(Cl)c1)=NCC2
When the recorded IC50 values are compared, which is smaller: that of A or that of B ? # answer = label of selected item
A
(A: 794 nM, B: 1260 nM)

----------
molecular target: Macrophage colony-stimulating factor 1 receptor (Homo sapiens)
Sequence (P07333 whole entry): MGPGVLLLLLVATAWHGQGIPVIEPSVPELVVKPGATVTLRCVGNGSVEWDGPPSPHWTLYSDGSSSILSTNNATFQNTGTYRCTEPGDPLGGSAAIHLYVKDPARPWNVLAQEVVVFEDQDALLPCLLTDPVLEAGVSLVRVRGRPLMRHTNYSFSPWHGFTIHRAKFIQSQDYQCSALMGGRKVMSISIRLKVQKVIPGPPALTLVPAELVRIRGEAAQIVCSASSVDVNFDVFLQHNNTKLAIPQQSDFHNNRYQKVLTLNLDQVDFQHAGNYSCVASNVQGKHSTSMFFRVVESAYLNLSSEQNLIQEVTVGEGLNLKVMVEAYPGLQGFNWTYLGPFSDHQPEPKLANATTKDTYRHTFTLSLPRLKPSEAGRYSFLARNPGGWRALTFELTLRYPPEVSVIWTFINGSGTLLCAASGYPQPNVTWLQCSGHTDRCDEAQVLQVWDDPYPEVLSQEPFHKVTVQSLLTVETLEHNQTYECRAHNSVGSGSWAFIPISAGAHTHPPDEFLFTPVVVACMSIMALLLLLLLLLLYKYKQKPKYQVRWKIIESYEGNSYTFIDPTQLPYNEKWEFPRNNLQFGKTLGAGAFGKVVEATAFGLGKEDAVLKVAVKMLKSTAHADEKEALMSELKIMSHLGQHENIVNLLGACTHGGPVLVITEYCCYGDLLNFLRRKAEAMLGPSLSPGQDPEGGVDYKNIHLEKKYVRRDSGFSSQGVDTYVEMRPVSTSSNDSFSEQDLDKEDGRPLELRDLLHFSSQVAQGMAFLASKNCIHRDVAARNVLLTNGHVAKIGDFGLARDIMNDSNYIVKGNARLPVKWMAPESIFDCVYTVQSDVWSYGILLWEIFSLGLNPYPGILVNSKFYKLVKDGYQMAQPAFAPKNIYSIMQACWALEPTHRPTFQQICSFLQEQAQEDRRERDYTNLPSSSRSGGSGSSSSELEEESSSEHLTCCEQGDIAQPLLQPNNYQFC
Observation Type: IC50

Input `COc1cc2c(cc1Cl)C(c1ccc(Cl)c(Cl)c1)=NCC2` , output reported IC50.
> 10 µM

----------
// IC50 lookup, one value per entry
molecular target: Mitogen-activated protein kinase kinase kinase 11 (Homo sapiens, UniProt Q16584); experiment: Inhibition of MLK3
Sequence (Q16584 whole entry): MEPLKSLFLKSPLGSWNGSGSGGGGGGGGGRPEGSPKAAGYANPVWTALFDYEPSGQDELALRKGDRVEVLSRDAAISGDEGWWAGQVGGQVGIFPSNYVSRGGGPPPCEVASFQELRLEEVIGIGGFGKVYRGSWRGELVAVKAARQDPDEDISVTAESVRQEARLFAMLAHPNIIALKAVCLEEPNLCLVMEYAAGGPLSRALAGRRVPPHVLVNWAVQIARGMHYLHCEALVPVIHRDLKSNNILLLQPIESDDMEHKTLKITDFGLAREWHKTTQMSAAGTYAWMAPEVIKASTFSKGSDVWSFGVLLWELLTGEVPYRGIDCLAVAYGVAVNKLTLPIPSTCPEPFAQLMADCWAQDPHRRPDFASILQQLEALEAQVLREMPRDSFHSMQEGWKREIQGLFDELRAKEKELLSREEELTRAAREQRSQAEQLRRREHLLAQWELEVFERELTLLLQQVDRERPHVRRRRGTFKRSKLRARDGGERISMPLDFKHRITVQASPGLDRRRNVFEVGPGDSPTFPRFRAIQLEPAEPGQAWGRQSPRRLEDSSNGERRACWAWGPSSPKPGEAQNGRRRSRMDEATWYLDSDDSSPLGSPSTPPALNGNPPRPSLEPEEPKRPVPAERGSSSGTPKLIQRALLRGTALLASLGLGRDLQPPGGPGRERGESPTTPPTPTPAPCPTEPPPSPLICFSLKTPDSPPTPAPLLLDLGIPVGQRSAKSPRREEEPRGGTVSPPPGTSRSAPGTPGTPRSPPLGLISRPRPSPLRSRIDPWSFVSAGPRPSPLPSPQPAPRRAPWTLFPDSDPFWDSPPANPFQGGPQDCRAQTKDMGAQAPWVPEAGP

> print(dat)
                               smiles.data  endpoint.value
1  COc1cc2c(cc1Cl)C(c1ccc(Cl)c(Cl)c1)=NCC2         > 10 µM

Next:
Input `COc1cc2c(cc1Cl)C(c1cccc(Cl)c1)=NCC2` , output reported IC50.
> 10 µM

----------
target: Mitogen-activated protein kinase 14 (Homo sapiens); assay: Inhibition of N-terminal GST-tagged p38alpha expressed in Escherichia coli by fluorescence anisotropy
Sequence (Q16539 whole entry): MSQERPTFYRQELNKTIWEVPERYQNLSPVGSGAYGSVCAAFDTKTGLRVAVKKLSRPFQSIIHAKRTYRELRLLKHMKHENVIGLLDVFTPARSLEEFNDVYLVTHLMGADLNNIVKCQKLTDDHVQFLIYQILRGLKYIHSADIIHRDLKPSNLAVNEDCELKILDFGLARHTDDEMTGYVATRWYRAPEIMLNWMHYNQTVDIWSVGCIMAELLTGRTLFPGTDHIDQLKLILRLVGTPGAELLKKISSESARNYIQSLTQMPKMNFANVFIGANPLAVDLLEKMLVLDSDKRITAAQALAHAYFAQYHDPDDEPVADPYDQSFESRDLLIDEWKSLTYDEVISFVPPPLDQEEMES
Observation Type: IC50 (µM)

> print(dat)
                           smiles.data  quantity.unit  endpoint.value
1  COc1cc2c(cc1Cl)C(c1cccc(Br)c1)=NCC2             µM            12.6

A = COc1cc2c(cc1Cl)C(c1cccc(Cl)c1)=NCC2
B = COc1cc2c(cc1Cl)C(c1cccc(Cl)c1F)=NCC2
// which entry has the larger IC50 value, A or B ? # answer = label of selected item
B
(B: 12.6 µM, A: 7.94 µM)
